The measured values listed here are drawn from the supplement of paper PMC9170038.

system: MS2 coat protein; assay: apparent KD of MS2 coat protein; designed switch direction (-1 OFF switch, 1 ON switch): 1; higher = weaker reporter binding; conditions: input ligand: microRNA oligo, concentration not stated
Kindly return y if reported apparent KD of MS2 coat protein is no lower than 30 nM; return n if it is lower.

**Query** Given ACGCUCCAUGGAGGAUAUGGGCCUGCCCGGGAUACCGGGCCUAACACAUGAGGAUCACCCAUGUCCCAGAAGGCCGCUGGAGCC [Atgeenbite] (Eterna round: R96, puzzle: Same State NG 2) , state whether its apparent KD of MS2 coat protein is at least 30 nM.
**Result** y

**Query** Is apparent KD of MS2 coat protein for UGGCUCAGAGCAGGAUAUAUGUCUCGAGCUUCGGCUCGAGACAUGAGGAUCACCCAUGUAAUAACAUAGAAGGGCUCUGAGCCA [SSNG2/1-B2] (Eterna round: R96, puzzle: Same State NG 2) at or above 30 nM?
**Result** y

**Query** Please indicate if the recorded apparent KD of MS2 coat protein for GGAGCCGGCCUAGGAUAUUUCAUAAAAUAACAUGAGGAUCACCCAUGUAGGCCAGAAGGCCUUGGGAAGAAGGAGGUCGGCUCC [Loop Effect - U28] (Eterna round: R96, puzzle: Same State NG 2) meets or exceeds 30 nM.
**Result** n

**Query** State whether the measured apparent KD of MS2 coat protein reaches 30 nM, counting equality as reaching it, for GCACAUGAGGAUCACCCAUGUGCGAGAAAGACGGACCGGAUACAGGAUAUGCGCGAACGGAAGACGCAGAAGGGUGACCAAAAC [Anmaed] (Eterna round: R96, puzzle: Same State NG 3)
**Result** y

**Query** Could you verify whether the entry GCCGGCUGGUGAGGAUAUGGCACCUUAUUGGUGCCAGAAGGCAUGUCAAUUGACAUGAGGAUCACCCAUGUAUUAUGGUUGGCG [salish99_SSNG1_r04_606] (Eterna round: R96, puzzle: Same State NG 1) shows apparent KD of MS2 coat protein of no less than 30 nM?
**Result** y

**Query** Does the reported apparent KD of MS2 coat protein for GUAACAUGACGAGGAUAUGGUACAUGAGGAUCACCCAUGUAUGUACCACGACGCGUACGUCGAAUCCAGAAGGCGUCGUGAAUG [Mat - Same State NG 2 - JL mod - D21] (Eterna round: R96, puzzle: Same State NG 2) fall at or above the 30 nM mark?
**Result** y

**Query** Assess whether reported apparent KD of MS2 coat protein for UGGCUCAGACGAGGAUAUGGUCAUGGCGCUUCGGCGCAUACAUGAGGAUCACCCAUGUAGGGUGAUCAGAAGGUGUCUGAGCCA [SSNG2/9-B2] (Eterna round: R96, puzzle: Same State NG 2) sits at 30 nM or higher.
**Result** y

**Query** Tell me whether apparent KD of MS2 coat protein is at least 30 nM here: AUUGCUUACGCAGGAUAUGAUGUGGAAACUGCGUCAGAAGGGUGAACAGAAUCGUUGCAAGAAGACAUGAGGAUCACCCAUGUC [SameState NG1 #97] (Eterna round: R96, puzzle: Same State NG 1)
**Result** y

**Query** Confirm if apparent KD of MS2 coat protein reported for the sequence GAUCGUUUGAUAGGAUAUCGCUAUACAUGAGGAUCACCCAUGUUUACCACGCUGGUUUUUCAUACCGAGAAGGAUUCUGAUGAA [salish99_SSNG02_r04_010] (Eterna round: R96, puzzle: Same State NG 2) is 30 nM or above.
**Result** n

----------
system: K4 kissing-loop RNA reporter; assay: apparent KD of K4 kissing-loop reporter; higher = weaker reporter binding; details: Eterna round: R107; input ligand: tryptophan 2.4 mM
Readout type: apparent KD of K4 kissing-loop reporter
Your reply should be a number followed by the unit it is expressed in.

Kindly note the recorded apparent KD of K4 kissing-loop reporter for AUUUAUCCGUCCAGCUGAGUGAUGUUUAGCCGAGGACCGGUACGGCCGCCACUCGUAAGAACCUGUUACGUUGGCUCCUGUGGUG [theeternabot_exclusion_KL_Trp_A_49] , which is 353 nM

apparent KD of K4 kissing-loop reporter measured on UAAUAAAUUCCAGCGAUAUCGCUCUUCGAAGGAGCGGACGAAAGUCCAGGUAGGUCGCGAAGAGUGAUGUUCUUUGCGGCGCUGG [Omei KL Arginine A Exc A v4] = 226 nM

Entry under test: AAUUUAUUAACUGAUACCAGACUUUAAUUUAUAUAUAUGUCUAGUGAUGUUAAACAUAUUGUCCCUUGGCAGCAGUAUUUAUUAA [JR_SSTheophyB_Sub020] . Its apparent KD of K4 kissing-loop reporter was 536 nM

----------
tested on: MS2 coat protein; test: apparent KD of MS2 coat protein; designed switch direction (-1 OFF switch, 1 ON switch): -1; higher = weaker reporter binding; conditions: input ligand: FMN 200 uM
Lab note: anything with apparent KD of MS2 coat protein at or over 30 nM counts as met; the rest go in not met.

**Query** Does apparent KD of MS2 coat protein meet or surpass 30 nM for AGAAUGCGAGGAUAUACAGCAAGAUAGCAAAAGACCCUCCAACAUGAGGAUCACCCAUGUAGAAGGCGCAUUCA [Eternabot (Original) Solution 19] (Eterna round: R97, puzzle: Exclusion 2) ?
**Result** met

**Query** Entry AGUACUAACACGAAAGUGUUAGUACAAUAAGCUUGUGAUACAUGAGGAUCACCCAUGUCCUCAUAAGCUCGUCUUAU [salish99_TOv2_r3_045] (Eterna round: R96, puzzle: Sensor v3, turn-off variant 2) : is its apparent KD of MS2 coat protein no less than 30 nM?
**Result** not met

**Query** Assess whether reported apparent KD of MS2 coat protein for CGCUGGACAGGAUAUGUUCUUGGGCACUUGAGGAUCACCCAAGUCAUCGGGACAUCAGGCACAGAAGGGUUUUUGG [salish99_ex5_r4_027] (Eterna round: R97, puzzle: Exclusion 5) sits at 30 nM or higher.
**Result** not met

**Query** Threshold query (apparent KD of MS2 coat protein >= 30 nM) on UACAUGAGGAUCACCCAUGUUUUGUCGUGUAUGGUAUUUAUCUAGGAUAUCAAUUUAUUUAGUUAUGAGAAGGAGAAUAUUAAU [JMF's solution 22] (Eterna round: R96, puzzle: Exclusion NG 3)
**Result** met

**Query** For this sequence, is measured apparent KD of MS2 coat protein 30 nM or higher? CUUUACAAGCUAAGAUCCUACAUGAGGAUCACCCAUGUGGUCCGGUGACGUGAGUCACCGGACUUAGCUCGUCUUGA [salish99_S_TOV1_R5_093] (Eterna round: R97, puzzle: Sensor, turn-off variant 1)
**Result** met

**Query** Dear colleague, could you confirm whether AUCCAACAUGAGGAUCACCCAUGUCAGGAUAUCUAGCGGUGCGGCAACCCGGGCGCGCGGAGAAGGGACAACGG [EX1 B.23] (Eterna round: R97, puzzle: Exclusion 1) has apparent KD of MS2 coat protein at or above 30 nM?
**Result** met

**Query** Reported apparent KD of MS2 coat protein at or above 30 nM? CUGCUGGAGCGGCGCUUUGGUCGUACAUGAGGAUCACCCAUGUAGGAUAUGGUAAAAUUUGCCUGCUAGAAGGAUAGAGUGGUC [salish99_ExNG3_r04_616] (Eterna round: R96, puzzle: Exclusion NG 3)
**Result** met

**Query** Textbook exercise: given the entry CCGUGUUUAGGAUAUGCUAUGGAAGUGUUAAUAUUCAUUAGACAUGAGGAUCACCCAUGUAGAAGGAGGCCGCG [Eternabot (L1) Solution 96] (Eterna round: R97, puzzle: Exclusion 2) , state whether its apparent KD of MS2 coat protein is greater than or equal to 30 nM.
**Result** met

**Query** Is it the case that UAGAAACAUGAGGAUCACCCAUGUGAGGAUAUGGCCCGCCCGGCGUGAGCUGGUUUUGUCAGAAGGCGCAUAGG [salish99_ex1_r4_020] (Eterna round: R97, puzzle: Exclusion 1) has apparent KD of MS2 coat protein reaching or exceeding 30 nM?
**Result** met

----------
test system: K4 kissing-loop RNA reporter; assay: apparent KD of K4 kissing-loop reporter; higher = weaker reporter binding; conditions: Eterna round: R107; input ligand: tryptophan 2.4 mM;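 further: bound reporter read as fluorescence of individual clusters on recovered sequencing chips by microscopy, with normalized cluster intensities fitted with a binding model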
Readout type: apparent KD of K4 kissing-loop reporter (nM)
The reply should contain only the number, in nM.

Consider `GCCUACGAUGCAGGAUAUAGCUCGCGAGUGAUGUUCGCAGCUGUAUGGUAGUAAACUUCCACGUGUCUAGAAGGGCAUCGUAGGC` . Its measured apparent KD of K4 kissing-loop reporter is 90.7

Item: AGACGCCAGUCGGCCGCCACUCACAGCAGUGAUGUUGCUGAAAAUCUAGAAGAGUGAUGUUCUUAGAGGACCGGGACUCCAGUCG [Same State Tryptophan B GF 6] | apparent KD of K4 kissing-loop reporter: 172

Sure, the documented apparent KD of K4 kissing-loop reporter for AGACCACAAAGUGGUCAGUGUUCGCGGCAGCGAGGACCGGUACGGCCGCCACUCGCGAGUGAUGUUCGCGAGAGCCGCGAACACA [Omei KL Tryp A Exc A v8] is 99.6
